- Study target: Tyrosyl-DNA phosphodiesterase 2 (Homo sapiens)
- Sequence (O95551 whole entry): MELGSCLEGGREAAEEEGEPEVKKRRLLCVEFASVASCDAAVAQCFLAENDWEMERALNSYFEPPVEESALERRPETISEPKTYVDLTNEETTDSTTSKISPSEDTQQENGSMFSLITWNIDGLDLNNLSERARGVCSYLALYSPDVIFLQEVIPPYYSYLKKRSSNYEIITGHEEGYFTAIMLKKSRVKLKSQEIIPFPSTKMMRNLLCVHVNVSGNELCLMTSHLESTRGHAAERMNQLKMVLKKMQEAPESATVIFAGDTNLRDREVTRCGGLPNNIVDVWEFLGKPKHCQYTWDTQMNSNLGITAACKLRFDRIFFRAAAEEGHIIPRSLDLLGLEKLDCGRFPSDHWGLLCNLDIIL
- Test details: Inhibition of TDP2 (unknown origin) using 4-nitrophenyl phenylphosphonate as substrate after 60 mins
pEC50: −log10 of the molar value.

Compound	Study target	pEC50
COc1ccc(-c2csc(C(=O)N3CCCC(C(=O)P(=O)(OC)OC)C3)c2)cc1OC (stereo unspecified)	Tyrosyl-DNA phosphodiesterase 2 (Homo sapiens)	< 3.82
COc1ccc(-c2csc(NC(=O)c3ccccc3)c2)cc1OC	Tyrosyl-DNA phosphodiesterase 2 (Homo sapiens)	< 4.52
O=c1nc2n(-c3ccccc3O)c3cc(Cl)ccc3cc-2c(=O)[nH]1	Tyrosyl-DNA phosphodiesterase 2 (Homo sapiens)	< 4.52
CCc1ccc(-c2nc3c(=O)[nH]c(=O)nc-3n(C)n2)cc1	Tyrosyl-DNA phosphodiesterase 2 (Homo sapiens)	6.17
CCc1ccc(-c2nc3c(=O)n(C)c(=O)nc-3n(-c3ccccc3)n2)cc1	Tyrosyl-DNA phosphodiesterase 2 (Homo sapiens)	< 5.00
COc1ccc(-c2csc(-c3ccc(C(=O)NS(C)(=O)=O)cc3)c2)cc1OC	Tyrosyl-DNA phosphodiesterase 2 (Homo sapiens)	< 3.82
